Here the recorded inhibition at 110 µM is given for each entry.
test system: C. elegans; assay: microbe, parasite or virus in culture; details: Caenorhabditis elegans, 24 h, read-out: Percentage of motility inhibition 24 h, Table S2, C. elegans SS assay, 110 μM, 24 h, averages of 4 data points
Give your result in % as a bare value.

Some solved cases for reference:
* OC(Cn1cncn1)(Cn1cncn1)c1ccc(F)cc1F | 12
* C[C@H](CC[C@@H](O)C(C)(C)O)[C@H]1CC[C@@]2(C)[C@@H]3CC=C4[C@@H](CC[C@H](O)C4(C)C)[C@]3(C)C(=O)C[C@]12C | 15
* CCCCC(CC)CN1CN(CC(CC)CCCC)CC(C)(N)C1 (stereo not shown) | 39

inhibition at 110 µM for CN1C(=O)C(O)CC1c1cccnc1 (stereo not shown) [Hydroxycotinine] is 0

###

system: C. elegans; conditions: Table S2, C. elegans SS assay, 110 μM, 0 h, averages of 4 data points
Here the recorded Percentage of motility inhibition 0 h is given for each entry.
Give your result in % as a bare value.

Percentage of motility inhibition 0 h for O=c1cc(-c2ccc(O)cc2)oc2c(C3O[C@H](CO)[C@@H](O[C@@H]4O[C@H](CO)[C@@H](O)[C@H](O)[C@H]4O)[C@H](O)[C@H]3O)c(O)cc(O)c12 (stereo partly drawn) [4”‐O‐Glucosylvitexin] is 0

Percentage of motility inhibition 0 h for Cc1ccc(CCCO)c(NCc2ccc3nc(NCCCN4CCOCC4)n(Cc4nc(C)ccc4O)c3c2)c1 [TMC353121] is 25

Percentage of motility inhibition 0 h for CN1[C@H]2C[C@H](OC(=O)[C@H](CO)c3ccccc3)C[C@@H]1[C@@H](O)C2 [Anisodamine] is 10

###

test system: C. elegans; experiment: microbe, parasite or virus in culture; settings: Caenorhabditis elegans, 0 h, read-out: Percentage of motility inhibition 0 h, Table S2, C. elegans SS assay, 110 μM, 0 h, averages of 4 data points
Class (by inhibition at 110 µM) -- A = under 3%, B = from 3% up to 10%, C = 10% and over

• CCCOC(=O)c1cc(O)c(O)c(O)c1 [Propyl gallate] = A
• CC1(C)C(C=C(Cl)Cl)C1C(=O)OCc1cccc(Oc2ccccc2)c1 (stereo not drawn) = B
• O=C1CN(/N=C/c2ccc([N+](=O)[O-])o2)C(=O)N1 = C

Category of C/C=C(\C)C(=O)O[C@H]1[C@H](O)[C@]2(COC(C)=O)[C@H](O)C[C@]3(C)C(=CC[C@@H]4[C@@]5(C)CC[C@H](O[C@@H]6O[C@H](C(=O)O)[C@@H](O[C@@H]7O[C@H](CO)[C@@H](O)[C@H](O)[C@H]7O)[C@H](O)[C@H]6O[C@@H]6O[C@H](CO)[C@@H](O)[C@H](O)[C@H]6O)[C@](C)(CO)[C@@H]5CC[C@]43C)[C@@H]2CC1(C)C , please. B

Category of CCCCCCCCCCCCCCCCCCCCCCO , please. C

Category of CC[C@H](C)[C@H](N)C(=O)O , please. C

Category of O=c1cc(-c2ccc(O)c(O)c2)oc2cc(O)c([C@@H]3O[C@H](CO)[C@@H](O)[C@H](O)[C@H]3O)c(O)c12 , please. B

Category of C[C@]12CC[C@@H]3c4ccc(O)cc4CC[C@H]3[C@@H]1C[C@@H](O)[C@@H]2O , please. A
